# protocol-summary: i.v. pharmacokinetic parameters and oral bioavailability in male Cynomolgus monkeys
# Format: in vivo
# settings: male, cynomolgus monkey, 1-h i.v. infusion, iv dose = 0.92 mg/kg, plasma
readout-name: Cmax (ng/mL)
Please give a number only; it is taken to be in ng/mL.

# input Cmax lookup needed for CNC(=O)[C@@H](NC(=O)[C@H](Cc1ccc2ccccc2c1)[C@H](OC(C)C)C(=O)NO)C(C)(C)C , thanks.
# output 1010

----------
# protocol-summary: i.v. pharmacokinetic parameters and oral bioavailability in male Beagle dogs
# Assay type: in vivo
# settings: male, Beagle; Dog, 1-h i.v. infusion, iv dose = 0.96 mg/kg, plasma
# Description: Procedure 4: The bioavailability of test compounds was investigated using the following bio-equivalence studies. A Study to Estimate the i.v. Pharmacokinetic Parameters and Oral Bioavailability in Male Beagle Dogs This study was conducted using a crossover design on two separate study days, seven days apart. Three male Beagle dogs were used in this study. […] Plasma concentrations of test compound were quantified by LC/MSIMS (LLQ=10 ng/mL). […]
readout-name: Cmax
Dear colleague, please send the value followed by its unit.

# input Which measured Cmax value corresponds to CNC(=O)[C@@H](NC(=O)[C@H](Cc1ccc2ccccc2c1)[C@H](OC(C)C)C(=O)NO)C(C)(C)C ?
# output 1410 ng/mL

----------
# protocol-summary: i.v. pharmacokinetic parameters and oral bioavailability in male Cynomolgus monkeys
# Type: in vivo
# settings: male, cynomolgus monkey, plasma, iv dose = 0.92 mg/kg
readout-name: clearance (mL/min/kg)
Report only the number, with the unit mL/min/kg understood.

# input I would be grateful if you could share the reported clearance for CNC(=O)[C@@H](NC(=O)[C@H](Cc1ccc2ccccc2c1)[C@H](OC(C)C)C(=O)NO)C(C)(C)C .
# output 14.7

----------
# protocol-summary: i.v. pharmacokinetic parameters and oral bioavailability in male Sprague Dawley rat
# Assay type: in vivo
# settings: male, Sprague Dawley, whole blood, iv, i.v. dose = 2.0 mg/kg
readout-name: MRT (h)
State just the number; it will be interpreted in h.

# input GET /values?readout=MRT&item= CNC(=O)[C@@H](NC(=O)[C@H](Cc1ccc2ccccc2c1)[C@H](OC(C)C)C(=O)NO)C(C)(C)C
# output 2.13

----------
# protocol-summary: i.v. pharmacokinetic parameters and oral bioavailability in male Beagle dogs
# Type: in vivo
# settings: male, Beagle, plasma; Dog, iv dose = 0.96 mg/kg
readout-name: MRT
Record the result as a number with its unit.

# input Which MRT is listed for CNC(=O)[C@@H](NC(=O)[C@H](Cc1ccc2ccccc2c1)[C@H](OC(C)C)C(=O)NO)C(C)(C)C ?
# output 1.07 h

----------
# protocol-summary: i.v. pharmacokinetic parameters and oral bioavailability in male Sprague Dawley rat
# Format: in vivo
# settings: male, Sprague Dawley, whole blood, iv, i.v. dose = 2.0 mg/kg
readout-name: clearance (mL/min/kg)
Give your result in mL/min/kg as a bare value.

# input Given CNC(=O)[C@@H](NC(=O)[C@H](Cc1ccc2ccccc2c1)[C@H](OC(C)C)C(=O)NO)C(C)(C)C , state its recorded clearance.
# output 26.4

----------
# protocol-summary: i.v. pharmacokinetic parameters and oral bioavailability in male Sprague Dawley rat
# Assay type: in vivo
# settings: male, Sprague Dawley, rat, whole blood, iv, 2 mg/kg, i.v. dose = 2.0 mg/kg, two-compartment model, read-out: T1/2 (β)
readout-name: half-life (min)
Give the number; min is assumed, so skip it.

# input Suppose we examine the compound CNC(=O)[C@@H](NC(=O)[C@H](Cc1ccc2ccccc2c1)[C@H](OC(C)C)C(=O)NO)C(C)(C)C ; what half-life value has been reported?
# output 234
